Exercise: for every item that follows, state its recorded TGI.
Tested on: HCT-15 colon
Assay: NCI tumour cell line growth inhibition, 48 h

Exam item: Sample O=C1c2cc(Cc3ccccc3)c(=O)c(Cc3ccccc3)cc2C(=O)c2cc(Cc3ccccc3)c(=O)c(Cc3ccccc3)cc21 — what was its TGI?
Marked response: > 100 µM

Exam item: Please look up its TGI: N#Cc1c(-c2ccc(Cl)cc2)cc(-c2ccc(Nc3ccnc4cc(Cl)ccc34)cc2)[nH]c1=O
Marked response: > 100 µM

Exam item: Could you share which TGI value was measured for COc1cccc(N=N/C(=N/NC(=O)c2ccc(C)cc2)c2ccc(N(CCC#N)CCC#N)cc2OC)c1 ?
Marked response: > 100 µM

Exam item: What measured TGI goes with O=[N+]([O-])c1cc[n+]([O-])c2ccccc12 ?
Marked response: 1.42 µM

Exam item: Suppose we examine the compound C1=NCCNCCNCCN=Cc2ccc(cc2)OCc2cccc(n2)COc2ccc1cc2 ; what TGI value has been reported?
Marked response: > 100 µM

Exam item: Quick check: TGI of CN1CCN(Cc2c[nH]c3c2C(=O)c2c(c(O)c4ccccc4c2O)C3=O)CC1 ?
Marked response: 15.6 µM

Exam item: Can you share its TGI? I mean this compound: NC(=N\N=C/c1ccc(O)cc1)/C(N)=N\N=C/c1ccc(O)cc1
Marked response: > 100 µM

Exam item: Sample CCn1c(=O)c2nc(SC)sc2n(-c2ccc(C)cc2)c1=O — what was its TGI?
Marked response: > 100 µM

Exam item: Find the recorded TGI belonging to Cc1ccc(S(=O)(=O)N2C[C@@H]3CC[C@]4(CO[Si](C)(C)C(C)(C)C)N[C@@H](c5ccccc5)[C@H]2[C@H]34)cc1 and report it.
Marked response: > 100 µM

###

Test system: MDA-MB-231 breast
Assay: NCI tumour cell line growth inhibition, 48 h; in the data active = GI50 below about 0.43 µM; inactive = the rest
Pick one: 1.0 (active), 0.0 (inactive)

Exam item: I would be grateful if you could indicate the recorded call for c1ccc(-c2nn3c(c2-c2ccnc4cc(OCCN5CCOCC5)ccc24)CCC3)nc1 .
Marked response: 0.0

Exam item: What did this assay record as the result for N#Cc1nc(-c2ccc(F)cc2)oc1S(=O)(=O)N1CCCCC1 ?
Marked response: 0.0

Exam item: Hey, what did the test say about O=[N+]([O-])c1cc[n+]([O-])c2ccccc12 ?
Marked response: 1.0

Exam item: I'd appreciate the recorded outcome for Fc1ccc(-c2ncn(C3CCNCC3)c2-c2ccnc(Oc3ccc4c(c3)OCO4)n2)cc1 from this test.
Marked response: 0.0

Exam item: Kindly provide the recorded test outcome for the following molecule: O=C1CCc2c(sc3[nH]c(=S)n(-c4cc(C(F)(F)F)cc(C(F)(F)F)c4)c(=O)c23)C1
Marked response: 1.0

Exam item: Given COc1ccc2c(c1)/C(=C\c1ccncc1)C(=O)N2 , state the outcome it received in this test.
Marked response: 0.0

Exam item: Hi, do you know how CCCCCCCCCCCC1=NC(C)(C)CN1C(C)(C)CO came out in this test?
Marked response: 0.0

Exam item: Please indicate how the test categorized Cc1ccc2nc3ccccc3c(NCc3ccc(Cl)cc3)c2c1 .
Marked response: 0.0

Exam item: I'd appreciate the recorded outcome for O=c1c2cc(C(F)(F)F)ccc2sc2c(NCCCNCCO)nc3ccccc3c12 from this test.
Marked response: 0.0

Exam item: Kindly provide the recorded test outcome for the following molecule: CCOc1ccc2c(-c3ccnc(Nc4cc(OC)cc(C(F)(F)F)c4)n3)cnn2n1
Marked response: 0.0

Exam item: What was the test verdict on OCCCCC#Cc1ccccc1C#Cc1ccc(O)cc1 ?
Marked response: 0.0

Exam item: For this molecule, state the assay outcome: COc1ccc([C@H](CC(=O)O)N2CCN(CCCc3ccc4c(n3)NCCC4)C2=O)cn1
Marked response: 1.0

Exam item: What is the recorded call for this molecule in the test? C=C1C(=O)O[C@H]2[C@H]1CC/C(COC(=O)CCCCCC(=O)OC/C1=C/CC[C@@]3(C)O[C@H]3[C@H]3OC(=O)C(=C)[C@@H]3CC1)=C\CC[C@@]1(C)O[C@@H]21
Marked response: 0.0

Exam item: Test call, this molecule: Cc1ccc(S(=O)(=O)Oc2ccc3c4c(c(=O)oc3c2)CCCCCC4)cc1
Marked response: 0.0

###

Test system: HCC-2998 colon
Assay: NCI tumour cell line growth inhibition, 48 h
VALUE_KIND: TGI (µM)
Write the value in µM as a bare number.

Exam item: Reported TGI, molecule CC1=NN(c2cccc(Cl)c2)C2(C1=Cc1ccc(O)cc1)C(Cl)C(=O)N2c1nc2ccccc2s1 (centres undefined) : ____
Marked response: 35

Exam item: Returns the measured TGI for the input molecule. Input: C=C(C(=O)O[C@H]1C/C(C)=C/CC/C(CO)=C/[C@H]2C(=O)OC(=C)[C@H]12)C(O)CO (some centres undefined)
Marked response: 30.1

Exam item: Consider the molecule O=C1C2C(C(=O)N1c1ccccc1)C1c3ccccc3C2C2C(=O)N(c3ccccc3)C(=O)C21 (centres undefined) and give its measured TGI.
Marked response: 24.7

Exam item: What does the data say about its TGI? Entry: N#Cc1nc(-c2ccc(F)cc2)oc1S(=O)(=O)N1CCCCC1
Marked response: 3.46

###

Test system: HOP-62 NSCLC
Experiment: NCI tumour cell line growth inhibition, 48 h
*1 amine or outer side, *2 acyl side, *3 side chain or, on linkers, in order; H or OH if unused. Where a SMILES comes first, the peptide text is derived from it. Bridges are numbered along the chain shown (N, C = ends). Roman numbers before positions name the chains, in order. [ ]: non-standard residue; d: D form. Actinocin(9to1) = Cc1c2oc3c(C)ccc(C(=O)[*:1])c3nc-2c(C(=O)[*:2])c(N)c1=O; NMeV = CN[CH](C(=O)O)C(C)C; Sar = CNCC(=O)O
VALUE_KIND: TGI (µM)
Express the result in µM but write the number alone.

Exam item: What does the data say about its TGI? Entry: Cc1c2oc3c(C)ccc(C(=O)NC4C(=O)NC(Cc5ccccc5)C(=O)N5CCCC5C(=O)N(C)CC(=O)N(C)C(C(C)C)C(=O)OC4C)c3nc-2c(C(=O)NC2C(=O)NC(Cc3ccccc3)C(=O)N3CCCC3C(=O)N(C)CC(=O)N(C)C(C(C)C)C(=O)OC2C)c(N)c1=O (centres undefined) (I: TFP[Sar][NMeV] / II: TFP[Sar][NMeV]; ester I:1-I:C, II:1-II:C; linker I:N-II:N via Actinocin(9to1); configuration not given here)
Marked response: 0.102

Exam item: Consider the compound shown here: CO/N=C(\COc1ccc2c(=O)c3ccccc3oc2c1)c1ccccc1 What is its recorded TGI?
Marked response: 78.3

Exam item: I'd like to know its TGI. The compound in question is Nc1ccc(-c2nc3ccccc3s2)cc1Cl
Marked response: 72.8

Exam item: May I ask what TGI has been recorded for C#CC1(O)CCC2C3CCc4cc(Oc5nc(F)nc(-c6c7ccccc7c7n6CCS7)n5)ccc4C3CC[C@@]21C (some centres undefined) ?
Marked response: 36.1

Exam item: So what's the measured TGI for this one? Nc1cc2c(c3ccccc13)C(CCl)CN2C(=O)c1cc2cc(NC(=O)Nc3ccc4[nH]c(C(=O)N5CC(CCl)c6c5cc(N)c5ccccc65)cc4c3)ccc2[nH]1 (centres undefined)
Marked response: 1.55

Exam item: What value of TGI has been recorded for this entry: CC[C@@]1(O)C(=O)OCc2c1cc1n(c2=O)Cc2c-1nc1ccc(O)cc1c2[Si](C)(C)C(C)(C)C
Marked response: 1.49

Exam item: Returns the measured TGI for the input compound. Input: COc1ccc(-c2c(C)c(C(=O)O)nc(-c3ccc4c(O)c(OC)c5c(c4n3)=NC(C)(C)N=5)c2N)c(O)c1OC
Marked response: 44

Exam item: Would you kindly share the measured TGI for CN(Cc1cnc2nc(N)nc(N)c2n1)c1ccc(C(=O)NC23CC4CC(CC(C4)C2)C3)cc1 ?
Marked response: 28.2

Exam item: Give the measured TGI of O=C(Oc1cccc(Cl)c1)c1ccccc1Nc1ccnc(C(F)(F)F)c1 .
Marked response: 44.7

Exam item: Entry CC(=O)O[C@H]1CC[C@@]2(C)C(=CC[C@@H]3[C@@H]2CC[C@]2(C)C(=N/O)/C(=C\c4ccccc4)C[C@@H]32)C1 : reported TGI = ?
Marked response: 71.6

Exam item: Which TGI value is on record for C#C[C@]1(O)CC[C@H]2[C@@H]3CC=C4c5sc(Nc6cc(F)ccc6F)nc5CC[C@]4(C)[C@H]3CC[C@@]21C ?
Marked response: 5.7

Exam item: What value of TGI has been recorded for this entry: COC(C)(C)[C@@H](O)[C@H](O)C[C@H](C)C1=C2CC[C@@H]3[C@@]4(C)CC[C@@H](OC(C)=O)C(C)(C)[C@@H]4C[C@@H](OC4OC(COC(C)=O)C(O)C(O)C4O)[C@@]3(C)[C@]2(C)CC1 (some centres undefined)
Marked response: 27.4

Exam item: // TGI lookup, key: C[C@@H]1[C@@H](C)C(c2ccccc2)O[Si]1(C(C)(C)C)C(C)(C)C (some centres undefined)
Marked response: 31.4

Exam item: Query: TGI; subject: CCC(=O)N1C/C(=C/c2ccc(Cl)cc2)C(=O)/C(=C/c2ccc(Cl)cc2)C1
Marked response: 1.53

Exam item: Given O=C(Nc1sccc1S(=O)(=O)c1ccc(Cl)cc1)c1ccc(F)cc1F , state its recorded TGI.
Marked response: 80.1
